- assayInfo: Solubility in buffers at pH 1.0, 1.2, 4.5, 6.8 and 7.5
- Assay type: physicochemical
- details: buffer pH 6.8, monobasic potassium phosphate 0.2 M / NaOH 0.2 M
Each entry below lists one item and its recorded Solubility pH = 6.8 (volume of solvent required for dissolution per gram of solute) value.
Provide only the numeric value, understood in ml/g.

Sample answers from the record:
- compound: "C[C@H]1c2cccc(O)c2C(O)=C2C(=O)[C@]3(O)C(O)=C(C(N)=O)C(=O)[C@@H](N(C)C)[C@@H]3[C@@H](O)[C@@H]21.O=C(O)C(=O)O [Doxycycline Oxalate]"
  val: 125
- compound: "C[C@H]1c2cccc(O)c2C(=O)C2=C(O)[C@]3(O)C(=O)C(C(N)=O)=C(O)[C@@H](N(C)C)[C@@H]3[C@@H](O)[C@@H]21 [Doxycycline Monohydrate, reference compound]"
  val: 333
- compound: "CCO.C[C@H]1c2cccc(O)c2C(=O)C2=C(O)[C@]3(O)C(=O)C(C(N)=O)=C(O)[C@@H](N(C)C)[C@@H]3[C@@H](O)[C@@H]21.C[C@H]1c2cccc(O)c2C(=O)C2=C(O)[C@]3(O)C(=O)C(C(N)=O)=C(O)[C@@H](N(C)C)[C@@H]3[C@@H](O)[C@@H]21.Cl.Cl.O [Doxycycline Hyclate, reference compound]"
  val: 2

Please give measured Solubility pH = 6.8 (volume of solvent required for dissolution per gram of solute) of the following entry: CC1c2cccc(O)c2C(O)=C2C(=O)C3(O)C(O)=C(C(N)=O)C(=O)C(N(C)C)C3C(O)C21.O=C(O)C=CC(=O)O (stereo not shown) [Doxycycline Maleate]
83
